system: IGROV-1; assay: NCI tumour cell line growth inhibition, 48 h
Activity calls are given as the source filed them. Cut-off read from the data, not from the text of the source: active = GI50 up to about 1.1 µM and inactive = higher.
Choose one outcome from this list and give only that: active, inactive

compound	class name
Cc1cc2c(cc1C)N1Cc3c(ccc(C)c3C)N(C2)C1.Cc1cc2c(cc1C)N1Cc3cc(C)c(C)cc3N(C2)C1	inactive
Cc1cccc(C)c1N1C(=O)C(=O)C(c2nc3ccccc3s2)/C(=N/NC(=O)NN)C1=O (stereo not given)	inactive
N#CSc1[nH]cnc1C(N)=O	inactive
Cc1ccc(-c2nc3n(c2/C=N\N=C(N)N)CCS3)cc1	inactive
O=[N+]([O-])c1cccc2nc3ccccc3c(NCCNCCO)c12	active

### Prompt Called result for O=C1OC(CC(=O)c2ccc(Cl)cc2)C(Cl)=C1Cl (stereo not given)
### Response inactive

### Prompt Also, `CC(=O)Nc1ccc2cc(C#N)c(=O)[nH]c2n1` please.
### Response inactive
